Each entry below lists one item and its recorded IC50 value.
- Subject of test: Beta-galactosidase (Escherichia coli, UniProt Q8VNN2)
- Sequence (Q8VNN2 whole entry): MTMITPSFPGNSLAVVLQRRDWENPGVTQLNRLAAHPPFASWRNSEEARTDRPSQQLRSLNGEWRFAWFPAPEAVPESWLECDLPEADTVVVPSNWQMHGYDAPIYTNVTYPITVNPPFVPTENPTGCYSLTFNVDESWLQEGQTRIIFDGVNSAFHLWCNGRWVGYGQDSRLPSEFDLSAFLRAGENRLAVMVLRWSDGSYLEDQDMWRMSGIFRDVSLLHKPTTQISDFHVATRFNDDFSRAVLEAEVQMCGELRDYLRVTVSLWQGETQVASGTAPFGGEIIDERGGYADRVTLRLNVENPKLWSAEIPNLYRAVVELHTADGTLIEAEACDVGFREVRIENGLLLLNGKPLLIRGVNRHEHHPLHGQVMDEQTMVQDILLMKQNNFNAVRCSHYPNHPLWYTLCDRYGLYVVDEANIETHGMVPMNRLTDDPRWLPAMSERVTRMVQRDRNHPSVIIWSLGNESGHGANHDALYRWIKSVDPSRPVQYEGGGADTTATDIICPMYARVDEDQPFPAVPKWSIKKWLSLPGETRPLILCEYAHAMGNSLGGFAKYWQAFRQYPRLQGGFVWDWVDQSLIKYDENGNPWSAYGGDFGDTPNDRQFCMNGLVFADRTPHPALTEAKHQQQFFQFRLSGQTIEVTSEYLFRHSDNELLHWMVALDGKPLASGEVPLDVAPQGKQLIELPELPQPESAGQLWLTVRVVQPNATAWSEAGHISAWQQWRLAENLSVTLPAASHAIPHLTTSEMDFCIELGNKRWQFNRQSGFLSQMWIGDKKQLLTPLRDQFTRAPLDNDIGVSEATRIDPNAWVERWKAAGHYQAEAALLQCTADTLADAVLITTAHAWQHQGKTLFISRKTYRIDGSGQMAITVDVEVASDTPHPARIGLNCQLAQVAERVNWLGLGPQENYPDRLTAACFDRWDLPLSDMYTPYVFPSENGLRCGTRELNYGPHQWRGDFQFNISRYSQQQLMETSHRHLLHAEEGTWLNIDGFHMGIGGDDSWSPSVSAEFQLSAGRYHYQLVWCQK
- Measurement description: detection-enzyme interference by beta-gal modulators – biochemical, E. coli enzyme, set 3, artefact control for CCR6 antagonist project, dose response (AID 504712)
- Assay type: functional
Activity calls are given as the source filed them. No rule for the calls is given here.

{"columns": ["Molecule", "IC50"],
 "data": [
  ["Cc1sc2nc(SCCN(C)C)n(-c3ccccc3)c(=O)c2c1-c1ccc(F)cc1", "> 66.6 µM (inactive)"],
  ["CC(/C=C/c1ccccc1)=N/NC(=O)c1cccc(Br)c1", "> 66.6 µM (inactive)"],
  ["Cc1ccc(NC2=C/C(=N/S(=O)(=O)c3cccs3)c3ccccc3C2=O)cc1", "50.8 µM (inactive)"],
  ["COC(=O)C1=NN(C(=O)c2cccc(Br)c2)C(O)(c2ccc(Cl)cc2)C1 (stereo unspecified)", "> 66.6 µM (inactive)"],
  ["N=C(N)N/N=C/c1ccc(OCc2ccc(Cl)cc2)cc1", "> 66.6 µM (inactive)"],
  ["Cc1ccc(Oc2c(C(N)=O)cc([N+](=O)[O-])cc2[N+](=O)[O-])cc1", "> 66.6 µM (inactive)"]
]}
